Value source: patent US9586959B2

Assayed Target: UniProt:Q9H3N8
Sequence (Q9H3N8 whole entry): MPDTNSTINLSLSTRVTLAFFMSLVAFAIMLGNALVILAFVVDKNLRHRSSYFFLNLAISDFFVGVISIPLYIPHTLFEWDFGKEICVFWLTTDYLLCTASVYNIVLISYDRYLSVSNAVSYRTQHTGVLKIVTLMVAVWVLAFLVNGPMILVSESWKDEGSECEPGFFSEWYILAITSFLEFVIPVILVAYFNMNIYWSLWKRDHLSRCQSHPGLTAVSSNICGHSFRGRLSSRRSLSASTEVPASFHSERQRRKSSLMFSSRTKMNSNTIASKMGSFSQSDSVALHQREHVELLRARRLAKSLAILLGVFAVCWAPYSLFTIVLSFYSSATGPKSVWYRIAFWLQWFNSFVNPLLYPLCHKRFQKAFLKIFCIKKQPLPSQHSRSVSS
Assay Notes: Binding affinity of human histamine 4 receptor (hH4R), [3H] labeled histamine displacement
Measurement Conditions: hH4R-overexpressed cell membrane, [3H] histamine
Note to self: IC50 under 100 nM means class 1, ties and anything higher get class 0.

>>> cat("CN1CCN(c2nc3ccc(Cl)cc3n3cnnc23)CC1 [reference compound]")
"class 1"
>>> cat("CN1CCN(c2nc3ncc(Cl)cc3n3nnnc23)CC1 [Compound 94]")
"class 1"
>>> cat("Clc1cnc2nc(N3CCNCC3)c3nncn3c2c1 [Compound 7]")
"class 0"
>>> cat("CNC1CN(c2nc3ncc(OC)cc3n3cnnc23)C1 [Compound 58]")
"class 0"
>>> cat("Brc1cnc2nc(N3CCNCC3)c3nncn3c2c1 [Compound 16]")
"class 1"
>>> cat("CCOc1nc2nc(N3CCNCC3)c3nncn3c2cc1Cl [Compound 63]")
"class 0"
>>> cat("CN1CCN(c2nc3ncc(Br)cc3n3cnnc23)CC1 [Compound 12]")
"class 1"
>>> cat("C=Cc1cnc2nc(N3CC(NC)C3)c3nncn3c2c1 [Compound 55]")
"class 0"
>>> cat("Clc1cnc2nc(N3CCNCC3)n3nc(C4CC4)nc3c2c1 [Compound 39]")
"class 0"
>>> cat("Ic1cnc2nc(N3CCN4CCCC4C3)c3nncn3c2c1 (stereo not drawn) [Compound 75]")
"class 1"
>>> cat("CNC1CN(c2nc3ncc(Cl)c(Cl)c3n3cnnc23)C1 [Compound 67]")
"class 0"
>>> cat("CNC1CN(c2nc3ncc(Br)cc3n3cnnc23)C1 [Compound 24]")
"class 1"
>>> cat("CN1CCN(c2nc3ncc(Cl)cc3c3ncnn23)CC1 [Compound 35]")
"class 0"
>>> cat("C#Cc1cnc2nc(N3CC(NC)C3)c3nncn3c2c1 [Compound 54]")
"class 0"
>>> cat("CN1CCN(c2nc3ncc(Br)cc3n3nnnc23)CC1 [Compound 96]")
"class 1"
>>> cat("Brc1cnc2nc(N3CCN4CCCC4C3)c3nncn3c2c1 (stereo not drawn) [Compound 74]")
"class 1"
>>> cat("CN1CCN(c2nc3ncc(Cl)cc3c3cn(C)nc23)CC1 [Compound 43]")
"class 1"
>>> cat("N#Cc1cnc2nc(N3CCNCC3)c3nncn3c2c1 [Compound 26]")
"class 0"
>>> cat("CNC1CN(c2nc3ncc(Br)cc3n3ccnc23)C1 [Compound 89]")
"class 0"
>>> cat("CN1CCN(c2nc3ncc(Cl)cc3n3ccnc23)CC1 [Compound 46]")
"class 0"
